# tested-on: S100A2 (Homo sapiens, UniProt P29034)
# Sequence (P29034 whole entry): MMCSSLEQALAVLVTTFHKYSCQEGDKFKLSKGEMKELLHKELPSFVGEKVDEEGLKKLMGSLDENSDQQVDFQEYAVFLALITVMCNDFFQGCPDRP
# assay-protocol: Acrylamide dynamic quenching of peptide Trp in S100A2 complex
# Assay type: binding
# particulars: Stern-Volmer constant, 5 mM CaCl2
Property: S100A2+Peptide KSV; scope: individual molecules
The reply should be a number in M⁻¹, with the unit left off.

Here is how some molecules turned out for S100A2+Peptide KSV.
CC[C@H](C)[C@H](NC(=O)[C@H](C)NC(=O)[C@H](CC(N)=O)NC(=O)[C@H](Cc1c[nH]c2ccccc12)NC(=O)[C@H](CC(=O)O)NC(=O)[C@@H](NC(=O)[C@H](CCCCN)NC(=O)[C@@H](NC(=O)[C@H](CCCNC(=N)N)NC(=O)[C@@H](NC(C)=O)[C@@H](C)O)[C@@H](C)O)[C@@H](C)CC)C(=O)N[C@@H](CC(C)C)C(=O)N[C@@H](CO)C(N)=O :: 6.1
CC[C@H](C)[C@H](NC(=O)[C@H](CCCCN)NC(=O)[C@H](CC(N)=O)NC(=O)[C@H](Cc1c[nH]c2ccccc12)NC(=O)[C@H](CC(=O)O)NC(=O)[C@H](C)NC(=O)[C@H](CCCCN)NC(=O)[C@@H](NC(=O)[C@H](CCCNC(=N)N)NC(=O)[C@@H](NC(C)=O)[C@@H](C)O)[C@@H](C)O)C(=O)N[C@@H](CC(C)C)C(=O)N[C@@H](CO)C(N)=O :: 8.9
CC[C@H](C)[C@H](NC(=O)[C@H](CCCCN)NC(=O)[C@H](CC(N)=O)NC(=O)[C@H](Cc1c[nH]c2ccccc12)NC(=O)[C@H](CC(=O)O)NC(=O)[C@@H](NC(=O)[C@H](CCCCN)NC(=O)[C@@H](NC(=O)[C@H](CCCNC(=N)N)NC(=O)[C@H](C)NC(C)=O)[C@@H](C)O)[C@@H](C)CC)C(=O)N[C@@H](CC(C)C)C(=O)N[C@@H](CO)C(N)=O :: 4.3

Then this molecule:
In: What value of S100A2+Peptide KSV has been recorded for this entry: "CC[C@H](C)[C@H](NC(=O)[C@H](CCCCN)NC(=O)[C@H](CC(N)=O)NC(=O)[C@H](Cc1c[nH]c2ccccc12)NC(=O)[C@H](CC(=O)O)NC(=O)[C@@H](NC(=O)[C@H](CCCCN)NC(=O)[C@@H](NC(=O)[C@H](CCCNC(=N)N)NC(=O)[C@@H](NC(C)=O)[C@@H](C)O)[C@@H](C)O)[C@@H](C)CC)C(=O)N[C@@H](C)C(=O)N[C@@H](CO)C(N)=O"
Out: 8.7

Origin of the recorded values: paper PMC3839042
